Data credit: ChEMBL document CHEMBL3046261

experiment: Cytotoxicity against Homo sapiens (human) U87 cells by MTT assay
Format: functional, cell-based, U-87MG ATCC
testContext: U-87 MG

{"molecule": "CC1(C)CC(=O)C2=C(C1)OC(N)=C(C#N)C21C(=O)N(CCCCBr)c2ccccc21 (configuration not stated)", "IC50, µg/mL": 156}
{"molecule": "O=NN(CCCl)C(=O)NCCCl", "IC50, µg/mL": 3.9}
{"molecule": "N#CC1=C(N)Oc2[nH]c(=O)[nH]c(=O)c2C12C(=O)N(CCCBr)c1ccccc12 (configuration not stated)", "IC50, µg/mL": 312}
{"molecule": "O=C1C(=O)N(CCCCCCCCCCBr)c2ccccc21", "IC50, µg/mL": 19}
{"molecule": "N#CC1=C(N)OC2=C(C(=O)CCC2)C12C(=O)N(CCCBr)c1ccccc12 (configuration not stated)", "IC50, µg/mL": 624}
{"molecule": "N#CC1=C(N)Oc2[nH]c(=O)[nH]c(=S)c2C12C(=O)N(CCCCCCCCCCBr)c1ccccc12 (configuration not stated)", "IC50, µg/mL": 39}
{"molecule": "N#CC1=C(N)OC2=C(C(=O)CCC2)C12C(=O)Nc1ccc(Br)cc12 (configuration not stated)", "IC50, µg/mL": 312}
{"molecule": "O=C1C(=O)N(CCCCBr)c2ccccc21", "IC50, µg/mL": 19}
{"molecule": "N#CC1=C(N)Oc2[nH]c(=O)[nH]c(=O)c2C12C(=O)N(CCCCCCBr)c1ccccc12 (configuration not stated)", "IC50, µg/mL": 78}
{"molecule": "Cc1nn(-c2ccccc2)c2c1C1(C(=O)N(CCCCCCCCCCBr)c3ccccc31)C(C#N)=C(N)O2 (configuration not stated)", "IC50, µg/mL": 19}
{"molecule": "N#CC1=C(N)Oc2c(c(=O)oc3ccccc23)C12C(=O)Nc1ccccc12 (configuration not stated)", "IC50, µg/mL": 78}
{"molecule": "N#CC1=C(N)Oc2c(c(=O)oc3ccccc23)C12C(=O)Nc1ccc(Br)cc12 (configuration not stated)", "IC50, µg/mL": 78}
{"molecule": "N#CC1=C(N)Oc2[nH]c(=O)[nH]c(=O)c2C12C(=O)Nc1ccccc12 (configuration not stated)", "IC50, µg/mL": 312}
{"molecule": "Cc1nn(-c2ccccc2)c2c1C1(C(=O)N(CCCCCCBr)c3ccccc31)C(C#N)=C(N)O2 (configuration not stated)", "IC50, µg/mL": 78}
{"molecule": "N#CC1=C(N)Oc2[nH]c(=S)[nH]c(=O)c2C12C(=O)N(CCCCCCBr)c1ccccc12 (configuration not stated)", "IC50, µg/mL": 78}
{"molecule": "N#CC1=C(N)Oc2[nH]c(=O)[nH]c(=O)c2C12C(=O)N(CCCCCCCCCCBr)c1ccccc12 (configuration not stated)", "IC50, µg/mL": 39}
{"molecule": "Cc1nn(-c2ccccc2)c2c1C1(C(=O)N(CCCCBr)c3ccccc31)C(C#N)=C(N)O2 (configuration not stated)", "IC50, µg/mL": 39}
{"molecule": "N#CC1=C(N)Oc2[nH]c(=O)[nH]c(=O)c2C12C(=O)N(CCBr)c1ccccc12 (configuration not stated)", "IC50, µg/mL": 78}
{"molecule": "N#CC1=C(N)Oc2c(c(=O)oc3ccccc23)C12C(=O)N(CCCCCCBr)c1ccccc12 (configuration not stated)", "IC50, µg/mL": 156}
{"molecule": "N#CC1=C(N)Oc2c(c(=O)oc3ccccc23)C12C(=O)N(CCCBr)c1ccccc12 (configuration not stated)", "IC50, µg/mL": 156}
{"molecule": "N#CC1=C(N)Oc2[nH]c(=O)[nH]c(=O)c2C12C(=O)N(CCCCBr)c1ccccc12 (configuration not stated)", "IC50, µg/mL": 312}
{"molecule": "N#CC1=C(N)Oc2[nH]c(=O)[nH]c(=S)c2C12C(=O)N(CCCBr)c1ccccc12 (configuration not stated)", "IC50, µg/mL": 624}
{"molecule": "O=C1C(=O)N(CCCCCCBr)c2ccccc21", "IC50, µg/mL": 19}
{"molecule": "N#CC1=C(N)Oc2[nH]c(=S)[nH]c(=O)c2C12C(=O)Nc1ccc(Br)cc12 (configuration not stated)", "IC50, µg/mL": 156}
{"molecule": "Cc1nn(-c2ccccc2)c2c1C1(C(=O)Nc3ccc(Br)cc31)C(C#N)=C(N)O2 (configuration not stated)", "IC50, µg/mL": 156}
{"molecule": "N#CC1=C(N)Oc2[nH]c(=S)[nH]c(=O)c2C12C(=O)N(CCCCBr)c1ccccc12 (configuration not stated)", "IC50, µg/mL": 78}
{"molecule": "N#CC1=C(N)Oc2c(c(=O)oc3ccccc23)C12C(=O)N(CCCCBr)c1ccccc12 (configuration not stated)", "IC50, µg/mL": 78}
{"molecule": "O=C1C(=O)N(CCCBr)c2ccccc21", "IC50, µg/mL": 2.5}
{"molecule": "CC1(C)CC(=O)C2=C(C1)OC(N)=C(C#N)C21C(=O)N(CCBr)c2ccccc21 (configuration not stated)", "IC50, µg/mL": 78}
{"molecule": "N#CC1=C(N)Oc2[nH]c(=S)[nH]c(=O)c2C12C(=O)N(CCBr)c1ccccc12 (configuration not stated)", "IC50, µg/mL": 78}
{"molecule": "Cc1nn(-c2ccccc2)c2c1C1(C(=O)N(CCBr)c3ccccc31)C(C#N)=C(N)O2 (configuration not stated)", "IC50, µg/mL": 78}
{"molecule": "Cc1nn(-c2ccccc2)c2c1C1(C(=O)N(CCCBr)c3ccccc31)C(C#N)=C(N)O2 (configuration not stated)", "IC50, µg/mL": 78}
